system: UniProtKB P33261
Sequence (P33261 whole entry): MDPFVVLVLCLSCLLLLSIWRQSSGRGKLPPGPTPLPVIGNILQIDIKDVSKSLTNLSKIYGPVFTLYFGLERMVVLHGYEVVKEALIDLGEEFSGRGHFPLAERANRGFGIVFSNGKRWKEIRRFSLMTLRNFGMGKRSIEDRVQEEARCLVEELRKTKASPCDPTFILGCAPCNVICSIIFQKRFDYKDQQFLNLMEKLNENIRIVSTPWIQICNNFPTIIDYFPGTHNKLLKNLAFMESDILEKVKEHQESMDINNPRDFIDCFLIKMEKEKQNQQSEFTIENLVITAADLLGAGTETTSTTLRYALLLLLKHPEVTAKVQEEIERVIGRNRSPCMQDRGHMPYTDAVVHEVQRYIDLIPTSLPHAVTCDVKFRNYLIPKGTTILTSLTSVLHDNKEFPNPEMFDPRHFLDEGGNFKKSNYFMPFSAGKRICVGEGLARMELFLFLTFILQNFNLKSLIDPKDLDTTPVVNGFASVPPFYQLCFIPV
Structures can show the parent of a compound that is named as a salt.
endpoint: CYP2C19 IC50 (half-maximal inhibitory concentration)

CC(C)(C(=O)c1cccnc1)c1cccnc1: Inactive
CN1[C@@H]2CCC(C)(C)[C@H]1C[C@H](OC(=O)C(O)(c1cccs1)c1cccs1)C2: Inactive
Cl.FC(F)(F)c1cccc(C2=CCN(CCc3ccc4ccccc4c3)CC2)c1 [Xaliproden hydrochloride]: Inactive
CC(=C(CCOC(=O)C(C)C)SSC(CCOC(=O)C(C)C)=C(C)N(C=O)Cc1cnc(C)nc1N)N(C=O)Cc1cnc(C)nc1N (stereo in doubt): Inactive
CCOC(CN1CCN(CC(C)C(=O)c2ccccc2)CC1)c1ccccc1.Cl.Cl (stereo not drawn) [Eprazinone dihydrochloride]: Inactive

Report CYP2C19 IC50 (half-maximal inhibitory concentration) for `CCN(CC)C(=O)/C(C#N)=C/c1cc(O)c(O)c([N+](=O)[O-])c1` please.
Inactive

Report CYP2C19 IC50 (half-maximal inhibitory concentration) for `CCCC[N+](C)(CCCC)CCCC.O=S(=O)([N-]S(=O)(=O)C(F)(F)F)C(F)(F)F` please.
Inactive

Report CYP2C19 IC50 (half-maximal inhibitory concentration) for NC(=O)C(c1ccccc1)(c1ccccc1)[C@@H]1CCN(CCc2ccc3c(c2)CCO3)C1 [Darifenacin hydrobromide] please.
Inactive

Report CYP2C19 IC50 (half-maximal inhibitory concentration) for `O=C1c2ccccc2C(=O)c2cc(Cl)ccc21` please.
Inactive

Report CYP2C19 IC50 (half-maximal inhibitory concentration) for c1ccc2c(c1)Sc1ccccc1N2CC1CN2CCC1CC2 (stereo not drawn) please.
Inactive

Report CYP2C19 IC50 (half-maximal inhibitory concentration) for CN1CCCCC1CCN1c2ccccc2Sc2ccc([S+](C)[O-])cc21 (stereo not drawn) please.
Inactive

Report CYP2C19 IC50 (half-maximal inhibitory concentration) for Cc1oc(=O)oc1COC(=O)[C@@H]1N2C(=O)[C@@H](NC(=O)[C@H](N)c3ccccc3)[C@H]2SC1(C)C.Cl [Lenampicillin hydrochloride] please.
Inactive

Report CYP2C19 IC50 (half-maximal inhibitory concentration) for `Brc1c(Br)c(Br)c(Br)c(Br)c1Br` please.
Inactive

Report CYP2C19 IC50 (half-maximal inhibitory concentration) for `COC(=O)c1cc(Cl)ccc1NS(=O)(=O)C(F)(F)F` please.
Inactive

Report CYP2C19 IC50 (half-maximal inhibitory concentration) for CCCCN1CCCC[C@H]1C(=O)Nc1c(C)cccc1C [Levobupivacaine hydrochloride] please.
Inactive

Report CYP2C19 IC50 (half-maximal inhibitory concentration) for Cc1ccc(Cl)c(OCC(O)CNC(C)(C)C)c1 (stereo not drawn) please.
Inactive
